Molecular target: T1, Human Nectin-4 (residues Gly32-Ser349) with C-terminal FLAG tag, biotinylated (human, UniProt Q96NY8 32-349, randomly biotinylated with EZ-Link Sulfo-NHS-LC-LC-Biotin)
T1 construct: range 32-349; Captured through biotin on a streptavidin CM5 chip in the SPR assay; also called PVRL4; not shown: C-terminal FLAG tag
T1 sequence (looked up): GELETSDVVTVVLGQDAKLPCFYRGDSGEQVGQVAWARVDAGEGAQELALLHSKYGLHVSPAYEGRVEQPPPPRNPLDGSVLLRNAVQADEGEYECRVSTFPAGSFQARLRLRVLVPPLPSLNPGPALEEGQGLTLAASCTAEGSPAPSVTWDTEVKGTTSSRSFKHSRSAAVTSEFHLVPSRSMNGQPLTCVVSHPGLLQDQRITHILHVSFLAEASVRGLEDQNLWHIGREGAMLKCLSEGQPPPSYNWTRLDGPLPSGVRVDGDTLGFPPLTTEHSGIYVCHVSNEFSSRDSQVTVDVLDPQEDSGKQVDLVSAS
Assay: SPR (Biacore), biotinylated human Nectin-4 on streptavidin chip
pKd: −log10 of the molar value. *1 amine or outer side, *2 acyl side, *3 side chain or, on linkers, in order; H or OH if unused. Bridges are numbered along the chain shown (N, C = ends). Where no end group is shown, it is not given here. [ ]: non-standard residue; d: D form. TATA = O=C(CC[*:1])N1CN(C(=O)CC[*:2])CN(C(=O)CC[*:3])C1; 1Nal = N[C@@H](Cc1cccc2ccccc12)C(=O)O; Hyp = O=C(O)[C@@H]1C[C@@H](O)CN1; hArg = N=C(N)NCCCC[C@H](N)C(=O)O; βAla = NCCC(=O)O; Sar = CNCC(=O)O
resultType: pKd

binder="{Ac-βAla}-[Sar][Sar][Sar][Sar][Sar]CPF[dA]CM[hArg]NWSWPIWC (linker 6-10-20 via TATA, Bicyclic peptide cyclised with TATA) [BCY7559]" resulttype=pKd recordednumber=7.83
binder="Ac-CP[1Nal][dR]CM[hArg]NWSTP[Hyp]WC (linker 1-5-15 via TATA, Bicyclic peptide cyclised with TATA) [BCY8128]" resulttype=pKd recordednumber=8.97
binder="Ac-CP[1Nal][dR]CM[Hyp]DWSTP[Hyp]WC (linker 1-5-15 via TATA, Bicyclic peptide cyclised with TATA) [BCY8194]" resulttype=pKd recordednumber=8.72

Values from patent US20210269480A1
